Data provenance is the OligoGym collection.

target-system: HNRNPU
protocol-summary: pooled miR-30 sensor sort-seq; sequence = guide strand; further: reference of the scale not given here
test-context: shRNA
outcome-measure: sensor-assay potency score (higher = more potent)

>  <sequence-entry>
TTTGCTTCTTAAAACCTGCCAC

>  <observed-measurement>
0.467

$$$$
>  <sequence-entry>
AACTACAACAGCTTTTCGCTGG

>  <observed-measurement>
0.276

$$$$
>  <sequence-entry>
TATTGCTTTTCTTTGAGCCAGT

>  <observed-measurement>
-0.865

$$$$
>  <sequence-entry>
TAAAATTTCGCTTCTTTCGGGC

>  <observed-measurement>
0.159

$$$$
>  <sequence-entry>
TTGAGTAACTACCACGGCCAGG

>  <observed-measurement>
-1.38

$$$$
>  <sequence-entry>
TTCTTCCTTATATTGCTCCAAG

>  <observed-measurement>
-1.21

$$$$

---

target-system: NPC1L1
protocol-summary: pooled miR-30 sensor sort-seq; sequence = guide strand
test-context: shRNA
outcome-measure: sensor-assay potency score (higher = more potent)

>  <sequence-entry>
TTGATCTCGTCTTCCAGAGAGC

>  <observed-measurement>
-1.19

$$$$
>  <sequence-entry>
TTGGAGTCCACCATCACTCGGC

>  <observed-measurement>
0.203

$$$$
>  <sequence-entry>
TTGATAGAACCTTCAAAGCTGT

>  <observed-measurement>
-0.451

$$$$
>  <sequence-entry>
TTGGTGATCGACAGACTCGCTT

>  <observed-measurement>
0.12

$$$$
>  <sequence-entry>
TAAAACACATTGGTGATCGTGT

>  <observed-measurement>
0.009

$$$$
>  <sequence-entry>
TTGGGGTCCACCATCTTGCTTT

>  <observed-measurement>
-0.775

$$$$
>  <sequence-entry>
TTGGAGAGTGTCATGAGGCTTC

>  <observed-measurement>
-0.0939

$$$$
>  <sequence-entry>
TTGTGTAAGGCTCACTCTGGGC

>  <observed-measurement>
-1.01

$$$$

---

target-system: C15orf58
protocol-summary: pooled miR-30 sensor sort-seq; sequence = guide strand
test-context: shRNA
Below is a list of entries, each paired with its recorded sensor-assay potency score (higher = more potent) value.
outcome-measure: sensor-assay potency score (higher = more potent)

>  <sequence-entry>
ATCTTGTTGAAGTTGAACTGTA

>  <observed-measurement>
-0.903

$$$$
>  <sequence-entry>
ATTGAAAGCTTCACCGTCCTTT

>  <observed-measurement>
0.575

$$$$
>  <sequence-entry>
TGTCAGGCTGCTGAAGTCCTGG

>  <observed-measurement>
-0.843

$$$$
>  <sequence-entry>
TTGAAGTTGAACTGTACAGGGT

>  <observed-measurement>
0.153

$$$$
>  <sequence-entry>
TTTGGGTCTGTAGCTCCCGTAG

>  <observed-measurement>
-1.43

$$$$
>  <sequence-entry>
TCTTCTTGCAGCAGAGTCCCAG

>  <observed-measurement>
-0.775

$$$$
>  <sequence-entry>
TGAAGTTGAACTGTACAGGGTC

>  <observed-measurement>
0.667

$$$$

---

target-system: ZNF160
protocol-summary: pooled miR-30 sensor sort-seq; sequence = guide strand
test-context: shRNA
outcome-measure: sensor-assay potency score (higher = more potent)

>  <sequence-entry>
TTTCTTGCTATTTTCACACAGC

>  <observed-measurement>
-0.0844

$$$$
>  <sequence-entry>
TTACCTATTACTCTCCTCCCAC

>  <observed-measurement>
-0.496

$$$$
>  <sequence-entry>
TGAATTTTGAGTGAAAACCTTG

>  <observed-measurement>
-0.306

$$$$
>  <sequence-entry>
TCTATGTCTCTTCTGTCGCGTT

>  <observed-measurement>
-0.213

$$$$
>  <sequence-entry>
TTCTGTACTGCTCTTCTCTTTT

>  <observed-measurement>
-0.536

$$$$
>  <sequence-entry>
TAAACAACAGGTATTGCTCTTT

>  <observed-measurement>
0.3

$$$$
>  <sequence-entry>
TTGATCTCTTTTACCTTCTTTC

>  <observed-measurement>
-0.844

$$$$
>  <sequence-entry>
TAGGCTTGAACGAACACTGAAG

>  <observed-measurement>
-0.806

$$$$
>  <sequence-entry>
TATGTTTACATGATGTCTCTTG

>  <observed-measurement>
0.273

$$$$

---

target-system: CT47A1
protocol-summary: pooled miR-30 sensor sort-seq; sequence = guide strand
test-context: shRNA
Assign Y whenever sensor-assay potency score (higher = more potent) does not fall below -0.6; assign N whenever it does.

>  <sequence-entry>
TGCATCCTTCTCTTTTTCTTGT

>  <category>
N

$$$$
>  <sequence-entry>
TTCCTCGCCTGCAGCATCTTGG

>  <category>
N

$$$$
>  <sequence-entry>
TATCTGAGTCCTCCTCGGCGCT

>  <category>
N

$$$$
>  <sequence-entry>
TCACCTTGTTTTCTGCATCCTT

>  <category>
Y

$$$$
>  <sequence-entry>
TTCTCTATGAGGATGTGGTCGT

>  <category>
Y

$$$$
>  <sequence-entry>
TGTTCTTTCTCTTCCTCGCCTG

>  <category>
Y

$$$$

---

target-system: LRRC45
protocol-summary: pooled miR-30 sensor sort-seq; sequence = guide strand
test-context: shRNA
Quick list: sensor-assay potency score (higher = more potent) per entry.
outcome-measure: sensor-assay potency score (higher = more potent)

>  <sequence-entry>
TGCAGCTTCCTGCTGCTCCAGC

>  <observed-measurement>
-1.24

$$$$
>  <sequence-entry>
AATAGTCTCCATCAAGTCGAGG

>  <observed-measurement>
-1.73

$$$$
>  <sequence-entry>
TGAACTTCCGCTCCAACTCGTC

>  <observed-measurement>
-0.925

$$$$
>  <sequence-entry>
TGACTGATCTGGTTGTTGCGGA

>  <observed-measurement>
0.13

$$$$
>  <sequence-entry>
ATGCTGGTCATCTCCTGCCTGG

>  <observed-measurement>
-1.52

$$$$
>  <sequence-entry>
TTCAGCTCAGCTGACATGCTGG

>  <observed-measurement>
-0.387

$$$$
>  <sequence-entry>
TTGGCAGCAGACAAGTCTCTGA

>  <observed-measurement>
-0.793

$$$$
>  <sequence-entry>
TAGACTCCCGCTCTGCAGCTTC

>  <observed-measurement>
-0.306

$$$$
>  <sequence-entry>
TTGAGAGCGTTGATGATGGAGT

>  <observed-measurement>
-0.215

$$$$

---

target-system: PKIA
protocol-summary: pooled miR-30 sensor sort-seq; sequence = guide strand
test-context: shRNA
Param threshold (0.02) applies to sensor-assay potency score (higher = more potent); output Yes when value >= threshold, No when value < threshold.

>  <sequence-entry>
TTGTTCTGTAGAACTTCGTTGT

>  <category>
Yes

$$$$
>  <sequence-entry>
TCATCATCTAGGTCGGAGCTAC

>  <category>
No

$$$$
>  <sequence-entry>
ATCTTCTTCACCTTCTGTCTTG

>  <category>
No

$$$$
>  <sequence-entry>
TTTACTGGGTGAACACTTGAGC

>  <category>
No

$$$$
>  <sequence-entry>
TTTGTTCTGTAGAACTTCGTTG

>  <category>
Yes

$$$$
>  <sequence-entry>
TATTGCATTTCTTCTACCTGTT

>  <category>
Yes

$$$$
>  <sequence-entry>
TCTTGTTGATATCAAGACCTGC

>  <category>
No

$$$$
>  <sequence-entry>
TTCAAGGCTAATTCATTGCTGT

>  <category>
Yes

$$$$

---

target-system: CEACAM7
protocol-summary: pooled miR-30 sensor sort-seq; sequence = guide strand
test-context: shRNA
Some sequences, each annotated with its measured sensor-assay potency score (higher = more potent).
outcome-measure: sensor-assay potency score (higher = more potent)

>  <sequence-entry>
TAGAATTGTCTGGTTACTTCTT

>  <observed-measurement>
-0.107

$$$$
>  <sequence-entry>
AACTTGCTTGTACTGACTCATA

>  <observed-measurement>
-1.59

$$$$
>  <sequence-entry>
TAACGTTCTGGATCAGCAGGGT

>  <observed-measurement>
0.257

$$$$
>  <sequence-entry>
TACTTCTTCATTCACAAGATTT

>  <observed-measurement>
-1.52

$$$$
>  <sequence-entry>
TATAATTCGATAGTTGGCATGC

>  <observed-measurement>
-0.121

$$$$
>  <sequence-entry>
TAAAACCACAATATCTTTGTTC

>  <observed-measurement>
0.0103

$$$$
>  <sequence-entry>
ATATCTTTGTTCTCCACCGGAT

>  <observed-measurement>
-0.501

$$$$
>  <sequence-entry>
TATCTTTGTTCTCCACCGGATT

>  <observed-measurement>
-1.29

$$$$
>  <sequence-entry>
TCGATAGTTGGCATGCACCCTT

>  <observed-measurement>
-0.656

$$$$
>  <sequence-entry>
TTGTCTCTCGACCGTTGTGTGC

>  <observed-measurement>
-1.35

$$$$
>  <sequence-entry>
TTATATTTTTTACATATCCTAT

>  <observed-measurement>
-0.681

$$$$
